These measurements were taken from patent US10370727B2.

# MEASURED TARGET: TrkA WT (Homo sapiens, UniProt P04629)
# Sequence (P04629 33-796): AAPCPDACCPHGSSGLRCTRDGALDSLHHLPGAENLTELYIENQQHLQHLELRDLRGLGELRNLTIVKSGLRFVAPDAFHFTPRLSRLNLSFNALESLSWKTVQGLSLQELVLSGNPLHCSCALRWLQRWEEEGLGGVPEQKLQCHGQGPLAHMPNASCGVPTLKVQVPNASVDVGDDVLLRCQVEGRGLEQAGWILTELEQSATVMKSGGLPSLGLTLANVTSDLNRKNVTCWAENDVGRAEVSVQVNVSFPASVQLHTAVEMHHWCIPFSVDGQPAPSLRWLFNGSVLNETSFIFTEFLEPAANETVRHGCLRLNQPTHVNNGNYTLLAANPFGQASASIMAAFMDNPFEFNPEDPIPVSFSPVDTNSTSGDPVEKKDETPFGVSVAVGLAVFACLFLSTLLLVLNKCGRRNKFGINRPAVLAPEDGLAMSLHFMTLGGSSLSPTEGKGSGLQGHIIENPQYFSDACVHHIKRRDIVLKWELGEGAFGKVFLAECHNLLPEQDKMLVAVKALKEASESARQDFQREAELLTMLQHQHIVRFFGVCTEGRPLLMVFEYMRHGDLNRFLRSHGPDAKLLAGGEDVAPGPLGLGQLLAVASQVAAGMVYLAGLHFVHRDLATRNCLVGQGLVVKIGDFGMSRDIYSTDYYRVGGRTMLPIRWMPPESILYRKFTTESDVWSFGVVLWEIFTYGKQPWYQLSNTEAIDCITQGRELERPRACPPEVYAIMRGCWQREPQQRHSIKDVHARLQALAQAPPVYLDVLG
# TEST METHOD NOTES: Trk enzyme assay ([33P] incorporation into poly-EAY)
# Assay type: biochemical
# CONDITION LABEL: wild-type TrkA enzyme; 22° C., 60 minutes
REPORTED PROPERTY: IC50 (nM)

// solved cases for IC50 follow
Measured on TrkA WT (Homo sapiens, UniProt P04629), `O=C1NCCCOc2ccc(F)cc2[C@H]2CCCN2c2ccn3ncc1c3n2` has a documented IC50 of 0.5

Case `C[C@H]1CNC(=O)c2cnn3ccc(nc23)N2CCC[C@@H]2c2cc(F)cn(c2=O)C1` , TrkA WT (Homo sapiens, UniProt P04629), IC50 recorded as 0.5

Entry `O=C1NCC(F)(F)COc2ncc(F)cc2[C@H]2CCCN2c2ccn3ncc1c3n2` under TrkA WT (Homo sapiens, UniProt P04629) had IC50 of 0.7

// compound `O=C1OCCOc2ncc(F)cc2[C@H]2CCCN2c2ccn3ncc1c3n2` , assay TrkA WT (Homo sapiens, UniProt P04629), IC50 value: 0.5

Given the compound `O=C(Nc1cnn2ccc(N3CCC[C@@H]3c3cc(F)ccc3F)nc12)N1CC(O)C1` and test system TrkA WT (Homo sapiens, UniProt P04629), the measured IC50 is 1.1

IC50 on TrkA WT (Homo sapiens, UniProt P04629) for `CC1(C)CNC(=O)c2cnn3ccc(nc23)N2CCC[C@@H]2c2cc(F)cnc2OC1` is 1

P = O=C(Nc1cnn2ccc(N3CCC[C@@H]3c3cc(F)ccc3Cl)nc12)N1CC(O)C1
Q = O=C(Nc1cnn2ccc(N3CCC[C@@H]3c3cccc(F)c3)nc12)N1CC(O)C1
Input: Compare P and Q by numeric IC50 and name the larger one. Indicate which entry you chose by stating its label.
Output: Q

I = CN(C)C(=O)Nc1cnn2ccc(N3CCC[C@@H]3c3cc(F)ccc3F)nc12
II = O=C1NC[C@H](O)COc2ccc(F)cc2[C@H]2CC(F)(F)CN2c2ccn3ncc1c3n2
Input: Consider I and II . Which of these has its IC50 at a higher number? Give the label under which the chosen entry appears.
Output: I
(I: 0.9 nM, II: 0.6 nM)

1 = CC1(O)CN(C(=O)Nc2cnn3ccc(N4CCC[C@@H]4c4cc(F)ccc4Cl)nc23)C1
2 = CC(=O)N1CCOc2ccc(F)cc2[C@H]2CCCN2c2ccn3ncc(c3n2)C1
Input: Which value of IC50 is smaller, the one for 1 or the one for 2 ? Your choice should be expressed through its label.
Output: 2

###

# MEASURED TARGET: TrkB G623R (Homo sapiens, UniProt Q16620, G623R)
# Sequence (Q16620 32-822 G623R): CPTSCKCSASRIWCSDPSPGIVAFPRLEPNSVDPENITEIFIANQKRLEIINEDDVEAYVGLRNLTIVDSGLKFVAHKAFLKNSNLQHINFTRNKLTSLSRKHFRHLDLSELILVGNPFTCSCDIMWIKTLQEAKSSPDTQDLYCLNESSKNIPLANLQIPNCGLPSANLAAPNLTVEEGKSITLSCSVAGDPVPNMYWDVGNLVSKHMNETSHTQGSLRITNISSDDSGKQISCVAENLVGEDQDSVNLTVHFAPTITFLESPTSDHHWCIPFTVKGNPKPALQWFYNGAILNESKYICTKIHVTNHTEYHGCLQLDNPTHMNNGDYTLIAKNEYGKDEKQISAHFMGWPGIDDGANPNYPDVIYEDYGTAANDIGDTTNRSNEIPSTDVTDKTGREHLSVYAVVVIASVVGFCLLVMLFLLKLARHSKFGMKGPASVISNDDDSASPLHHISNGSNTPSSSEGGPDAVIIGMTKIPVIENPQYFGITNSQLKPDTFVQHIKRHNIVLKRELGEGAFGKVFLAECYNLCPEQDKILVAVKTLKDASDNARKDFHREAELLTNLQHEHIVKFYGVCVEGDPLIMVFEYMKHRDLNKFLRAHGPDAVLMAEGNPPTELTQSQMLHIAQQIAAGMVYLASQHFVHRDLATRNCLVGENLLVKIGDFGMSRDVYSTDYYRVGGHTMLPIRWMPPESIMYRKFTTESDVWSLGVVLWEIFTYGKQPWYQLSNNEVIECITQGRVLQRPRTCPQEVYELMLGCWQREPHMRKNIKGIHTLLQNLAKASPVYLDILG
# TEST METHOD NOTES: Trk enzyme assay ([33P] incorporation into poly-EAY)
# Type: biochemical
# CONDITION LABEL: mutant TrkB G623R enzyme; 22° C., 60 minutes
REPORTED PROPERTY: IC50 (nM)

Illustrative cases are given below, each with its answer.
Per the reported TrkB G623R (Homo sapiens, UniProt Q16620, G623R) data, `NC(=O)Nc1cnc2ccc(N3CCC[C@@H]3c3cc(F)ccc3F)nn12` has IC50 of 90

Query `NC(=O)c1cnn2ccc(N3CCC[C@@H]3c3cc(F)ccc3F)nc12` on TrkB G623R (Homo sapiens, UniProt Q16620, G623R); IC50 returned: 1.3

Measured on TrkB G623R (Homo sapiens, UniProt Q16620, G623R), `CN(CCO)C(=O)Nc1cnc2ccc(N3CCC[C@@H]3c3cc(F)ccc3F)nn12` has a documented IC50 of 27.5

The molecule `CN(C)C(=O)Nc1cnc2ccc(N3CCC[C@@H]3c3cc(F)ccc3F)nn12` on TrkB G623R (Homo sapiens, UniProt Q16620, G623R): IC50 was 34.1

Form: item `O=C(Nc1cnn2ccc(N3CCC[C@@H]3c3cc(F)ccc3F)nc12)N1CC(O)C1` ; test system TrkB G623R (Homo sapiens, UniProt Q16620, G623R); IC50: 132

Note to self: IC50 of `O=C(Nc1cnn2ccc(N3CCC[C@@H]3c3cc(F)ccc3Cl)nc12)N1CC(O)C1` with TrkB G623R (Homo sapiens, UniProt Q16620, G623R) was 104

1 = CONC(=O)c1cnn2ccc(N3CCC[C@@H]3c3cc(F)cnc3OC)nc12
2 = O=C1NCCCOc2ncc(F)cc2[C@H]2CCCN2c2ccn3ncc1c3n2
Input: Which of these two has the smaller recorded IC50: 1 or 2 ? State your choice using its label.
Output: 2
